- Test system: 616215-338-R-J1-PDC complex spheroid viability
- assay comment: Anticancer human tumor 616215-338-R-J1-PDC patient-derived colon adenocarcinoma cell line growth inhibition [POLQ]
- run parameters: second compound 1 µM; first compound 0.0316 µM; active compounds read low
reported metric: viability, T/C (%)
Numeric only. Scale: %

Consider the compound COc1ccc([C@@H](O)c2cc(-c3ncnc4cc(N5CCOCC5)ccc34)c(F)cc2Cl)nn1 + COC1C(OC(N)=O)C(O)C(Oc2ccc3c(O)c(NC(=O)c4ccc(O)c(CC=C(C)C)c4)c(=O)oc3c2C)OC1(C)C and give its recorded viability, T/C. 96.7

Consider the compound COc1cccc(OCCCN)c1-c1cc(Nc2cnc(C#N)cn2)n[nH]1 + Cc1cccc(N(C)C(=O)C2C(O)CCN2c2nc(C)cc(C(F)(F)F)c2C#N)c1 and give its recorded viability, T/C. 56.1

Consider the compound CCc1cc2c(N3CCc4c(cc(Cn5ccnc5)cc4-c4cn(C)nc4C(F)(F)F)C3=O)cc(C)nc2c(OC)n1 + Cc1cccc(N(C)C(=O)C2C(O)CCN2c2nc(C)cc(C(F)(F)F)c2C#N)c1 and give its recorded viability, T/C. 105

###

Please respond with reported viability, T/C for every item in the list.
- System: 616215-338-R-J1-PDC complex spheroid viability
- assay comment: Anticancer human tumor 616215-338-R-J1-PDC cell line growth inhibition [POLQ];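 note: spheroids exposed to compounds for one week before readout; percent viability relative to DMSO vehicle wells taken as 100%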
- run parameters: second compound 0.316 µM; first compound 3.16 µM; active compounds read low

Consider the compound O=C(c1cc(Cc2n[nH]c(=O)c3ccccc23)ccc1F)N1CCN(C(=O)C2CC2)CC1 + COC1C(OC(N)=O)C(O)C(Oc2ccc3c(O)c(NC(=O)c4ccc(O)c(CC=C(C)C)c4)c(=O)oc3c2C)OC1(C)C and give its recorded viability, T/C. 109%

Consider the compound COc1cc(C2c3cc4c(cc3C(OC3OC5COC(C)OC5C(O)C3O)C3COC(=O)C23)OCO4)cc(OC)c1O (stereo not drawn) + Nc1ccc(C#CCN(C(=O)Cc2ncc(C(F)(F)F)cc2C(F)(F)F)c2ccc(F)cc2)nn1 and give its recorded viability, T/C. 35.9%

Consider the compound O=C(Nc1ccc(O)c(NS(=O)(=O)c2ccc(F)cc2)c1)c1ccc(-c2ccccc2)cc1 + COC1C(OC(N)=O)C(O)C(Oc2ccc3c(O)c(NC(=O)c4ccc(O)c(CC=C(C)C)c4)c(=O)oc3c2C)OC1(C)C and give its recorded viability, T/C. 106%

###

- System: 616215-338-R-J1-PDC complex spheroid viability
- assay comment: Anticancer human tumor 616215-338-R-J1-PDC cell line growth inhibition [POLQ];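 note: spheroids exposed to compounds for one week before readout; percent viability relative to DMSO vehicle wells taken as 100%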
- run parameters: second compound 0.0316 µM; first compound 0.316 µM; active compounds read low
reported metric: viability, T/C (%)
Numeric only. Scale: %

Consider the compound Nc1ccn(C2OC(CO)C(O)C2(F)F)c(=O)n1 (stereo not given) + Cc1cccc(N(C)C(=O)C2C(O)CCN2c2nc(C)cc(C(F)(F)F)c2C#N)c1 and give its recorded viability, T/C. 22.8

Consider the compound C=CC(=O)N1CCN(c2nc(=O)n(-c3c(C)ccnc3C(C)C)c3nc(-c4c(O)cccc4F)c(F)cc23)C(C)C1 (stereo not given) + Nc1ccc(C#CCN(C(=O)Cc2ncc(C(F)(F)F)cc2C(F)(F)F)c2ccc(F)cc2)nn1 and give its recorded viability, T/C. 96.9

Consider the compound O=C(Nc1ccc(O)c(NS(=O)(=O)c2ccc(F)cc2)c1)c1ccc(-c2ccccc2)cc1 + COC1C(OC(N)=O)C(O)C(Oc2ccc3c(O)c(NC(=O)c4ccc(O)c(CC=C(C)C)c4)c(=O)oc3c2C)OC1(C)C and give its recorded viability, T/C. 104

Consider the compound C#Cc1c(F)ccc2cc(O)cc(-c3ncc4c(N5CC6CCC(C5)N6)nc(OCC56CCCN5CC(F)C6)nc4c3F)c12 (stereo not given) + COC1C(OC(N)=O)C(O)C(Oc2ccc3c(O)c(NC(=O)c4ccc(O)c(CC=C(C)C)c4)c(=O)oc3c2C)OC1(C)C and give its recorded viability, T/C. 101

Consider the compound C=CC(=O)N1CCN(c2nc(=O)n(-c3c(C)ccnc3C(C)C)c3nc(-c4c(O)cccc4F)c(F)cc23)C(C)C1 (stereo not given) + COC1C(OC(N)=O)C(O)C(Oc2ccc3c(O)c(NC(=O)c4ccc(O)c(CC=C(C)C)c4)c(=O)oc3c2C)OC1(C)C and give its recorded viability, T/C. 98.4

Consider the compound CCc1c2c(nc3ccc(O)cc13)-c1cc3c(c(=O)n1C2)COC(=O)[C@]3(O)CC + Nc1ccc(C#CCN(C(=O)Cc2ncc(C(F)(F)F)cc2C(F)(F)F)c2ccc(F)cc2)nn1 and give its recorded viability, T/C. 15.7

Consider the compound CCc1cc2c(N3CCc4c(cc(Cn5ccnc5)cc4-c4cn(C)nc4C(F)(F)F)C3=O)cc(C)nc2c(OC)n1 + Cc1cccc(N(C)C(=O)C2C(O)CCN2c2nc(C)cc(C(F)(F)F)c2C#N)c1 and give its recorded viability, T/C. 83

Consider the compound COc1cccc(OCCCN)c1-c1cc(Nc2cnc(C#N)cn2)n[nH]1 + COC1C(OC(N)=O)C(O)C(Oc2ccc3c(O)c(NC(=O)c4ccc(O)c(CC=C(C)C)c4)c(=O)oc3c2C)OC1(C)C and give its recorded viability, T/C. 69.3

Consider the compound O=C(Nc1ccc(O)c(NS(=O)(=O)c2ccc(F)cc2)c1)c1ccc(-c2ccccc2)cc1 + Nc1ccc(C#CCN(C(=O)Cc2ncc(C(F)(F)F)cc2C(F)(F)F)c2ccc(F)cc2)nn1 and give its recorded viability, T/C. 105

Consider the compound CCc1cc2c(N3CCc4c(cc(Cn5ccnc5)cc4-c4cn(C)nc4C(F)(F)F)C3=O)cc(C)nc2c(OC)n1 + COC1C(OC(N)=O)C(O)C(Oc2ccc3c(O)c(NC(=O)c4ccc(O)c(CC=C(C)C)c4)c(=O)oc3c2C)OC1(C)C and give its recorded viability, T/C. 109

Consider the compound CC(C)n1c(=O)n(C)c2cnc3cc(F)c(-c4ccc(OCCCN5CCCCC5)nc4)cc3c21 + Cc1cccc(N(C)C(=O)C2C(O)CCN2c2nc(C)cc(C(F)(F)F)c2C#N)c1 and give its recorded viability, T/C. 99.1

Consider the compound CC1COCCN1c1cc(C2(O)CC3CCC(C2)O3)c2cnn(-c3ccn[nH]3)c2n1 (stereo not given) + Cc1cccc(N(C)C(=O)C2C(O)CCN2c2nc(C)cc(C(F)(F)F)c2C#N)c1 and give its recorded viability, T/C. 76.6

Consider the compound CCCS(=O)(=O)Nc1ccc(F)c(C(=O)c2c[nH]c3ncc(-c4ccc(Cl)cc4)cc23)c1F + Cc1cccc(N(C)C(=O)C2C(O)CCN2c2nc(C)cc(C(F)(F)F)c2C#N)c1 and give its recorded viability, T/C. 101

Consider the compound C=CCn1c(=O)c2cnc(Nc3ccc(N4CCN(C)CC4)cc3)nc2n1-c1cccc(C(C)(C)O)n1 + Nc1ccc(C#CCN(C(=O)Cc2ncc(C(F)(F)F)cc2C(F)(F)F)c2ccc(F)cc2)nn1 and give its recorded viability, T/C. 55.4

Consider the compound CCc1cc2c(N3CCc4c(cc(Cn5ccnc5)cc4-c4cn(C)nc4C(F)(F)F)C3=O)ccnc2c(OC)n1 + Cc1cccc(N(C)C(=O)C2C(O)CCN2c2nc(C)cc(C(F)(F)F)c2C#N)c1 and give its recorded viability, T/C. 86.4

Consider the compound CC1COCCN1c1cc(C2(S(C)(=N)=O)CC2)nc(-c2ccnc3[nH]ccc23)n1 (stereo not given) + Nc1ccc(C#CCN(C(=O)Cc2ncc(C(F)(F)F)cc2C(F)(F)F)c2ccc(F)cc2)nn1 and give its recorded viability, T/C. 93

Consider the compound CC1COCCN1c1cc(C2(S(C)(=N)=O)CC2)nc(-c2ccnc3[nH]ccc23)n1 (stereo not given) + Cc1cccc(N(C)C(=O)C2C(O)CCN2c2nc(C)cc(C(F)(F)F)c2C#N)c1 and give its recorded viability, T/C. 94.8

Consider the compound C=CCn1c(=O)c2cnc(Nc3ccc(N4CCN(C)CC4)cc3)nc2n1-c1cccc(C(C)(C)O)n1 + COC1C(OC(N)=O)C(O)C(Oc2ccc3c(O)c(NC(=O)c4ccc(O)c(CC=C(C)C)c4)c(=O)oc3c2C)OC1(C)C and give its recorded viability, T/C. 97.8

Consider the compound O=c1[nH]cc(F)c(=O)[nH]1 + COC1C(OC(N)=O)C(O)C(Oc2ccc3c(O)c(NC(=O)c4ccc(O)c(CC=C(C)C)c4)c(=O)oc3c2C)OC1(C)C and give its recorded viability, T/C. 73.4

Consider the compound CC1COCCN1c1cc(-c2ccnn2C)c2ccnc(-c3ccn[nH]3)c2n1 (stereo not given) + Nc1ccc(C#CCN(C(=O)Cc2ncc(C(F)(F)F)cc2C(F)(F)F)c2ccc(F)cc2)nn1 and give its recorded viability, T/C. 38.9

All figures here come from PubChem BioAssay AID1963843.
